- Target desc: nicotinic receptors (rat brain membranes)
- Study conditions: pH 7.5; read-out: 3H-MCC Binding IC50
I'd appreciate it if you could supply IC50 values for the items below.
Numbers only, in nM.

O=c1cccc2n1C[C@@H]1CNC[C@H]2C1 [cytisine, reference compound]	0.1
CC(=O)OCCN(C)C [DMAE acetate]	50000
CCCN1CCCC1c1cccnc1 (stereo not shown) [N'--propyl nornicotine, reference compound]	1000

Now look at this entry.
Form field: reported IC50 of CNC(=O)OCCCN(C)C [DMAP methylcarbamate] 50

###

- Target desc: nicotinic receptors (rat brain membranes)
- Type: binding
- Study conditions: read-out: Kd (Hill binding constant) of [3H]-MCC
Value type: pKd
One number for each entry, as −log10 of the molar value.

# query: pKd of entry [3H]C([3H])([3H])[N+](C)(C)CCOC(=O)NC [[^3 H]-MCC, [^3 H]-methylcarbamyl choline] 9.05

###

- Target desc: nicotinic receptors (rat brain membranes)
- Type: binding
- Study conditions: read-out: Kd, Scatchard analysis of [3H]-MCC binding
Value type: pKd
Answers are plain numbers, as −log10 of the molar value.

Any idea what its pKd is? The compound is [3H]C([3H])([3H])[N+](C)(C)CCOC(=O)NC [[^3 H]-MCC, [^3 H]-methylcarbamyl choline] 8.96

###

- Test system: rats
- Protocol description: animal or person
- Study conditions: Rattus norvegicus, ip, 7 min, read-out: % Antagonism (seizures)
Value type: responders at 25 mg/kg (%)
Answers are plain numbers, in %.

Consider the following illustrative entries.
C[N+](C)(C)CCOC(=O)C1CCCCC1 [TMAE cyclohexylcarboxylate]	78
C[N+](C)(C)CCOC(=O)c1ccccc1 [TMAE benzoate, benzoylcholine]	78
CN1[C@@H]2CC[C@H]1C[C@@H](OC(=O)C(CO)c1ccccc1)C2 (stereo partly shown) [atropine, reference compound]	0

Consider now this further compound.
I have this compound here, C[N+](C)(C)CCOC(=O)Nc1ccccc1 [TMAE phenylcarbamate] , and I need its recorded responders at 25 mg/kg. 89

###

- Target desc: nicotinic receptors (rat brain membranes)
- Format: binding
- Study conditions: read-out: 3H-Nicotine Binding IC50
Value type: IC50 (µM)
One number for each entry, in µM.

Fill in IC50 for each of the 3 compounds listed.
1. CN1[C@@H](CC(=O)c2ccccc2)CCC[C@H]1CC(=O)c1ccccc1 [lobelanine, reference compound]
2. CN(C)CCOC(=S)Nc1ccccc1 [DMAE phenylthiocarbamate]
3. CN1[C@@H](CC(=O)c2ccccc2)CCC[C@H]1C[C@H](O)c1ccccc1 [α-lobeline, reference compound]

[0.01, 70, 0.005]

Value sought for every listed compound: IC50.
1. CN(C)CCOC(=O)C1CCCCC1 [DMAE cyclohexylcarboxylate, dimethylaminoethyl cyclohexylcarboxylate]
2. CN(C)CCOC(=O)Nc1ccccc1 [DMAE phenylcarbamate]
3. C[N+](C)(C)CCOC(=S)Nc1ccccc1 [TMAE phenylthiocarbamate]
4. C[N+](C)(C)CCOC(=O)C1CCCCC1 [TMAE cyclohexylcarboxylate]

2
100
0.5
0.08

Quick check: IC50 of CN1C(CC(O)c2ccccc2)CCCC1CC(O)c1ccccc1 (centres unmarked) [lobelanidine, reference compound] ? 0.02

###

- Test system: rats
- Design: species or system Sprague-Dawley male rats; unit not given here
- Study conditions: rat, in vivo
Value type: Blockade of (nicotine-induced prostration) EC50
One number for each entry.

C[N+](C)(C)CCOC(=O)C1CCCCC1 [TMAE cyclohexylcarboxylate]	10

Count: 3. Required value per item: Blockade of (nicotine-induced prostration) EC50.
1. CN1[C@@H](CC(=O)c2ccccc2)CCC[C@H]1CC(=O)c1ccccc1 [lobelanine, reference compound]
2. C[N+](C)(C)CCOC(=S)Nc1ccccc1 [TMAE phenylthiocarbamate]
3. CN(C)CCOC(=O)c1cccnc1 [DMAE nicotinate]

[25, 50, 50]

For every listed record, write down its Blockade of (nicotine-induced prostration) EC50.
1. C[N+](C)(C)CCOC(=O)Cc1ccccc1 [TMAE phenylacetate]
2. Nc1c2c(nc3ccccc13)CCCC2 [9-aminotetrahydroacridine, reference compound]
3. CN(C)CCOC(=O)C1CCCCC1 [DMAE cyclohexylcarboxylate, dimethylaminoethyl cyclohexylcarboxylate]
4. C[N+](C)(C)CCOC(=O)c1ccccc1 [TMAE benzoate, benzoylcholine]
5. CN1C(CC(O)c2ccccc2)CCCC1CC(O)c1ccccc1 (stereo not shown) [lobelanidine, reference compound]
6. C[N+](C)(C)CCOC(=O)Nc1ccccc1 [TMAE phenylcarbamate]
7. CN1CCCC(OC(=O)c2ccccc2)C1 (stereo not shown) [N--methyl-3-piperdyl benzoate]
8. CN(C)CCOC(=O)c1ccccc1 [DMAE benzoate, dimethylaminoethyl benzoate]

1: 100; 2: 200; 3: 100; 4: 10; 5: 25; 6: 200; 7: 300; 8: 100

Fill in: Blockade of (nicotine-induced prostration) EC50 of CN1[C@@H](CC(=O)c2ccccc2)CCC[C@H]1C[C@H](O)c1ccccc1 [α-lobeline, reference compound] is ___ 10

###

- Target desc: nicotinic receptors (rat brain membranes)
- Assay type: binding
- Study conditions: read-out: Kd from rate constants, [3H]-MCC
Value type: pKd
One number for each entry, as −log10 of the molar value.

Fill in the recorded pKd for this compound, with nicotinic receptors (rat brain membranes) as test system: [3H]C([3H])([3H])[N+](C)(C)CCOC(=O)NC [[^3 H]-MCC, [^3 H]-methylcarbamyl choline] 8.48

###

- Target desc: nicotinic receptors (rat brain membranes)
- Type: binding
- Study conditions: pH 7; read-out: [3H]-nicotine IC50
Returns: string. Value is MET if measured IC50 is below 500 nM, and NOT MET if it is greater than or equal to it.

Please review the following examples before continuing.
C[N+](C)(C)CCCCCC[N+](C)(C)C	NOT MET
CCCN1CCCC1c1cccnc1 (stereo not drawn) [N'--propyl nornicotine, reference compound]	NOT MET
CN(C)CCOC(N)=O [DMAE carbamate]	NOT MET
C[N+]1(C)CCCC1c1cccnc1 (stereo not drawn)	NOT MET

For CCN1CCCC1c1cccnc1 (stereo not drawn) [N'--ethyl nornicotine, reference compound] , is the recorded IC50 below the cut-off of 500 nM? MET

###

Give measured IC50 for each item. Keep answers brief.
- Target desc: nicotinic receptors (rat brain membranes)
- Format: binding
- Study conditions: read-out: 3H-Nicotine Binding IC50
Numbers only, in µM.

C[N+](C)(C)CCOC(=O)Nc1ccccc1 [TMAE phenylcarbamate]	6
CN(C)CCOC(=O)c1cccnc1 [DMAE nicotinate]	0.2
CN1CCCC(OC(=O)c2ccccc2)C1 (stereo not drawn) [N--methyl-3-piperdyl benzoate]	30
COc1ccc(CC2c3cc(OC)c(OC)cc3CCN2C)cc1OC (stereo not drawn) [N--methyltetrahydro papavarine, reference compound]	70

Moving on to the next compound.
# IC50 lookup, item C[N+](C)(C)CCOC(=O)Cc1ccccc1 [TMAE phenylacetate] 2

###

- Target desc: nicotinic receptors (rat brain membranes)
- Study conditions: read-out: 3H-MCC Binding IC50
Please go through the items and note down their pIC50.
Numbers only, as −log10 of the molar value.

Hi, could you look up pIC50 for each item in my list?
1. CN(C)CCOC(=O)c1cccnc1 [DMAE nicotinate]
2. COc1ccc(CC2c3cc(OC)c(OC)cc3CCN2C)cc1OC (centres unmarked) [N--methyltetrahydro papavarine, reference compound]
3. C[N+](C)(C)CCOC(=O)Nc1ccccc1 [TMAE phenylcarbamate]
4. C[N+](C)(C)CCOC(=O)C1CCCCC1 [TMAE cyclohexylcarboxylate]
5. CN1[C@@H](CC(=O)c2ccccc2)CCC[C@H]1CC(=O)c1ccccc1 [lobelanine, reference compound]
6. CN1C(CC(O)c2ccccc2)CCCC1CC(O)c1ccccc1 (centres unmarked) [lobelanidine, reference compound]
7. CN1[C@@H](CC(=O)c2ccccc2)CCC[C@H]1C[C@H](O)c1ccccc1 [α-lobeline, reference compound]

6.70
4.10
6.10
7.30
8.30
8.30
9.15

// input: 3 molecules below; output: pIC50 for each
1. C[N+](C)(C)CCOC(=S)Nc1ccccc1 [TMAE phenylthiocarbamate]
2. CN(C)CCOC(=O)Nc1ccccc1 [DMAE phenylcarbamate]
3. C[N+](C)(C)CCOC(=O)Cc1ccccc1 [TMAE phenylacetate]

[6.30, 4.00, 6.52]

###

- Target desc: nicotinic receptors (rat brain membranes)
- Format: binding
- Study conditions: pH 7; read-out: [3H]-MCC IC50
Value type: pIC50
Numbers only, as −log10 of the molar value.

CN(C)CCOC(N)=O [DMAE carbamate]	5.00
CNC(=O)OCCN(C)C [DMAE methylcarbamate, dimethylaminoethylmethylcarbamate]	6.10
C[N+]1(C)CCCC1c1cccnc1 (centres unmarked) [N'--methyl nicotonium]	5.40
CCCN1CCCC1c1cccnc1 (centres unmarked) [N'--propyl nornicotine, reference compound]	6.00

Proceed to the following item.
Given the entry CCN1CCCC1c1cccnc1 (centres unmarked) [N'--ethyl nornicotine, reference compound] , report its measured pIC50. 7.00
